# Experimental target: Protein kinase C gamma type (Homo sapiens, UniProt P05129)
# Measurement protocol: Inhibition of PRKCG (unknown origin)
pIC50: −log10 of the molar value.
Endpoint name: pIC50

Returns the measured pIC50 for the input compound. Input: `N#CCNC(=O)c1ccc(-c2ccnc(Nc3ccc(N4CCOCC4)cc3)n2)cc1`
> 6.00

* * *

# Experimental target: Serine/threonine-protein kinase D1 (Homo sapiens)
# Sequence (Q15139 whole entry): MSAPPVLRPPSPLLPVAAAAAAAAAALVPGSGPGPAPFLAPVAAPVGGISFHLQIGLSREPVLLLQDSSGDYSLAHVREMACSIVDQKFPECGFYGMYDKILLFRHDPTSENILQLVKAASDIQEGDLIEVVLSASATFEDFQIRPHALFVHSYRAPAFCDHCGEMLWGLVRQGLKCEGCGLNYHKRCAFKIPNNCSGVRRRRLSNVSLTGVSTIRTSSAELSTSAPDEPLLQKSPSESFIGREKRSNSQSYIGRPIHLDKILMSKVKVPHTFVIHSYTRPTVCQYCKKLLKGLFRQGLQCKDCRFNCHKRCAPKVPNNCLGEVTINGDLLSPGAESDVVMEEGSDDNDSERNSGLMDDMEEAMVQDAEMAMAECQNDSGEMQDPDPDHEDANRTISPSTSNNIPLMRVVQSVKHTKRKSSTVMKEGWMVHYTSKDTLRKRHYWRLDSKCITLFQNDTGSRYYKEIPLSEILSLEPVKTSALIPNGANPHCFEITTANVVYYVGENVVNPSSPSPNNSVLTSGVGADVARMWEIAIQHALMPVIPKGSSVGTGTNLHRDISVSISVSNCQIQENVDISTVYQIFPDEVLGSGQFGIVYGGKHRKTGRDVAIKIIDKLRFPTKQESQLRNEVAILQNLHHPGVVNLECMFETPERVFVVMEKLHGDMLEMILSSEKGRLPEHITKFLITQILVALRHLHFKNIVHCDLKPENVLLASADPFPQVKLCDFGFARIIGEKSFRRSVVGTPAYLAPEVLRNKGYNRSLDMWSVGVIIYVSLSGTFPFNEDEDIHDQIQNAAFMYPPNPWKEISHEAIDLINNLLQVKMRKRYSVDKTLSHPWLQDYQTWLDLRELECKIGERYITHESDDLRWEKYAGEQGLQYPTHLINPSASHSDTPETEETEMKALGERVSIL
# Measurement protocol: Inhibition of PRKD1 (unknown origin)
pIC50: −log10 of the molar value.
Endpoint name: pIC50

Give Serine/threonine-protein kinase D1 (Homo sapiens) pIC50 for `N#CCNC(=O)c1ccc(-c2ccnc(Nc3ccc(N4CCOCC4)cc3)n2)cc1`
> 7.00
